Origin of the recorded values: paper PMC2360244

- MEASUREMENT TARGET: HDAC6 (Rattus norvegicus)
- Construct: partially purified extract from rat liver; from tissue; host or cells: rat liver, partially purified extract
- ASSAY NAME: biochemical
- Type: biochemical
- CONDITIONS USED: read-out: Liver extract B12 HDAC6 IC50
pIC50: −log10 of the molar value.

{"SMILES REPR": "CC(/C=C/C(=O)NO)=C\\[C@@H](C)C(=O)c1ccc(N(C)C)cc1", "pIC50": 7.68}

###

Measured pIC50 by item
- System: A2780 ovarian carcinoma cells
- ASSAY NAME: A2780 tumour cell proliferation, MTT colorimetric assay
- Assay type: cell-based, human
- CONDITIONS USED: 4 days, mean±s.d.
pIC50: −log10 of the molar value.

{"SMILES REPR": "Nc1ccccc1NC(=O)c1ccc(CNC(=O)OCc2cccnc2)cc1", "pIC50": 6.42}
{"SMILES REPR": "CC(/C=C/C(=O)NO)=C\\[C@@H](C)C(=O)c1ccc(N(C)C)cc1", "pIC50": 7.64}

###

- MEASUREMENT TARGET: HDAC1 (Rattus norvegicus)
- Sequence (Q4QQW4 whole entry): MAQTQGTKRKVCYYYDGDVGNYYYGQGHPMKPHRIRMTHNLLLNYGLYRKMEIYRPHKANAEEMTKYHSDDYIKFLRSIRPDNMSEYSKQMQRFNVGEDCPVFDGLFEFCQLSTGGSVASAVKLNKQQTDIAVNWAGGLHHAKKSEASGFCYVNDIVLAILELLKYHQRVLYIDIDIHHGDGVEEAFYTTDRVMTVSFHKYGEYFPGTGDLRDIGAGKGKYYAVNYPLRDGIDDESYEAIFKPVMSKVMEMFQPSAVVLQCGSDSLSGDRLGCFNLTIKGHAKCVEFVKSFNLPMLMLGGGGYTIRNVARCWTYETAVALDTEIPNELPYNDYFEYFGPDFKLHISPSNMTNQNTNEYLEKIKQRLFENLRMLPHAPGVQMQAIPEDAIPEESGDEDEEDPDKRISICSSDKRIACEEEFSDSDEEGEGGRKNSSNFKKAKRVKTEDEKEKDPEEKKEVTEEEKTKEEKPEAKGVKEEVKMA
pIC50: −log10 of the molar value.

{"COMPOUND": "O=C(CCCCCCC(=O)Nc1ccccc1)NO [Vorinostat, suberoylanilide hydroxamic acid]", "pIC50": 5.99}

###

- MEASUREMENT TARGET: HDAC6 (Rattus norvegicus, UniProt A0A8I6GM68)
- Construct: partially purified extract from rat liver; from tissue; host or cells: rat liver, partially purified extract
- Sequence (A0A8I6GM68 whole entry): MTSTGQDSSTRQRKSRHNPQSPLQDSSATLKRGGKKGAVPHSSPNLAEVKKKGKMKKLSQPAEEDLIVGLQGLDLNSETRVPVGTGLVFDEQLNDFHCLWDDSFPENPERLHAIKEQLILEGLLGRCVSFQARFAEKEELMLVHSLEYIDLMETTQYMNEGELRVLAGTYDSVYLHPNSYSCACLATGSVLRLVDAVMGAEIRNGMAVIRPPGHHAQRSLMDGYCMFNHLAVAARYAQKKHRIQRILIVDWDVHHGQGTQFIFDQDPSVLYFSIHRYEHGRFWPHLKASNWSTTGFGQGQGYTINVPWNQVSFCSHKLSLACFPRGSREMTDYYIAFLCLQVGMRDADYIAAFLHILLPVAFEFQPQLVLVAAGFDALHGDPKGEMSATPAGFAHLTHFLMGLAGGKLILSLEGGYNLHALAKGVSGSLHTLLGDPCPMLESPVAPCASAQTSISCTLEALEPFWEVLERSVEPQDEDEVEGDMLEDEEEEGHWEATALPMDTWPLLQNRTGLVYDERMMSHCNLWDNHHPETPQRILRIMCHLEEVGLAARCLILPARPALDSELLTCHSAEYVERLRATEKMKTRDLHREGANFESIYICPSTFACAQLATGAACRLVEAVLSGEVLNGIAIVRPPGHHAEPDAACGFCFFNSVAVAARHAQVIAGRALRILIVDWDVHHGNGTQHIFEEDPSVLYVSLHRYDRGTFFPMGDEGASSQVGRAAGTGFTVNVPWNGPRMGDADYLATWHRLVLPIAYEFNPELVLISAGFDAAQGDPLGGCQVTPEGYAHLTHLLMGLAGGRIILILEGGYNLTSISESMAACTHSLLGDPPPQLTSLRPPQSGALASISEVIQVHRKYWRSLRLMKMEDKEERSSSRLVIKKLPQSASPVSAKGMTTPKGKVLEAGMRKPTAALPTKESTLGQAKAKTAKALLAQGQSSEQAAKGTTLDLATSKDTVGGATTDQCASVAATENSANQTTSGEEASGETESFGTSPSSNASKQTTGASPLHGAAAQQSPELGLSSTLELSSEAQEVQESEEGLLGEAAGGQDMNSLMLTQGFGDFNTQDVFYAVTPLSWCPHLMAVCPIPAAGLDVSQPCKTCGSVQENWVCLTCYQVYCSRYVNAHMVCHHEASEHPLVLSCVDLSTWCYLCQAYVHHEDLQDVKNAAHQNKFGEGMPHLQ
- ASSAY NAME: biochemical
- Type: biochemical

{"SMILES REPR": "Cc1[nH]c2ccccc2c1CCNCc1ccc(/C=C/C(=O)NO)cc1", "MEASUREMENT TARGET": "HDAC6 (Rattus norvegicus, UniProt A0A8I6GM68)", "UNIT": "nM", "IC50": 89}
